# pIC50 per entry
studyTarget: Human recombinant PRMT5 in complex with human recombinant MEP50 (Homo sapiens (Human), UniProt O14744)
Sequence (O14744 whole entry): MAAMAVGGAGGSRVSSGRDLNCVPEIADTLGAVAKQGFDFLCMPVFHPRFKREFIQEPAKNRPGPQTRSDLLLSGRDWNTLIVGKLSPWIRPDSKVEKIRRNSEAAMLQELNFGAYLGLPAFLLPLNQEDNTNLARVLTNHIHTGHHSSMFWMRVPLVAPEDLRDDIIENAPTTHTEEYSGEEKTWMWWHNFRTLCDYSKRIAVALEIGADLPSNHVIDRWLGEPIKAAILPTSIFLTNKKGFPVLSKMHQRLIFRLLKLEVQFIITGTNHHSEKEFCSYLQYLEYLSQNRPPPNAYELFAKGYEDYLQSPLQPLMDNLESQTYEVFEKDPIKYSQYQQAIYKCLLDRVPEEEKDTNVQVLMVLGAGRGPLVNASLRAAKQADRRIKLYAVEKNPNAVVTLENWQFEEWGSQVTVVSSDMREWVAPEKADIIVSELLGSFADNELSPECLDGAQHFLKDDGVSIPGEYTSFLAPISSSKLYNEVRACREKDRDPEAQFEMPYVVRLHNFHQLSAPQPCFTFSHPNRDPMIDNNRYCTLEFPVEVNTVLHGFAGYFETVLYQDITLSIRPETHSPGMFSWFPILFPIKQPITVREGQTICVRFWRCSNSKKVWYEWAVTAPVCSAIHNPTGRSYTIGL
Sequence (Q9BQA1 whole entry partner): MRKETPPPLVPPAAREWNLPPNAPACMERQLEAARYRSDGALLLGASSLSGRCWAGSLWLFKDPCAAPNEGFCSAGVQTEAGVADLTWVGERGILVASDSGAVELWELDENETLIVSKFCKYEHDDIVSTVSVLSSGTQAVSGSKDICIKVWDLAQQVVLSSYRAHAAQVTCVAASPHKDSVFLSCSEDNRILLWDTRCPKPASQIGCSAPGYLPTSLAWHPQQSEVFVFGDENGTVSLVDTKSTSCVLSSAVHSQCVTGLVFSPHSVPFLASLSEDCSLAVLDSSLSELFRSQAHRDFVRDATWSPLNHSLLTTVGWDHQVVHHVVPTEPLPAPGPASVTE
assayDetails: PRMT5/MEP50 AlphaLISA enzyme inhibitory assay
conditionDetails: PRMT5/MEP50 25 nM, SAM 10 μM, Biotin-H4 peptide 30 nM
pIC50: −log10 of the molar value.
measurementKind: pIC50

INSERT INTO results (compound, recordedmeasurement) VALUES
  ('O=C1c2cc(Nc3ccnnc3)ccc2OCCN1C[C@@H](O)CN1CCc2ccccc2C1 [Compound 30b]', 7.44),
  ('O=C1c2nc(Nc3ccnnc3)ccc2OCCN1CC(O)CN1CCc2ccccc2C1 (centres unmarked)', 6.16),
  ('O=C1c2cc(NC3CCOCC3)cnc2CCN1CC(O)CN1CCc2ccccc2C1 (centres unmarked)', 5.65),
  ('O=C1c2cc(NC3COC3)ccc2CCN1CC(O)CN1CCc2ccccc2C1 (centres unmarked)', 7.01),
  ('Cn1cc(Nc2ccc3c(c2)C(=O)N(C[C@H](O)CN2CCc4ccccc4C2)CCO3)cn1 [Compound 29a]', 8.08),
  ('CN1CC(Nc2ccc3c(c2)C(=O)N(C[C@H](O)CN2CCc4ccccc4C2)CCO3)CC1=O (some centres unmarked)', 7.29),
  ('CC(=O)N1C2CCC1CC(Nc1ccc3c(c1)C(=O)N(CC(O)CN1CCc4ccccc4C1)CCO3)C2 (centres unmarked)', 6.71),
  ('O=C1c2cc(Nc3cccnn3)ccc2OCCN1C[C@H](O)CN1CCc2ccccc2C1', 7.65),
  ('CC(=O)N1CC(Nc2ccc3c(c2)C(=O)N(CC(O)CN2CCc4ccccc4C2)CC3)C1 (centres unmarked)', 7.11),
  ('CN1C(=O)CN(CC(O)CN2CCc3ccccc3C2)C(=O)c2cc(Nc3ccnnc3)ccc21 (centres unmarked)', 8.16),
  ('CC(=O)N1CCC(Nc2cc3c(cc2F)OCCN(C[C@@H](O)CN2CCc4ccccc4C2)C3=O)CC1 [Compound 17b]', 6.14),
  ('CC1(C)CN(CC(O)CN2CCc3ccccc3C2)C(=O)c2cc(Nc3ccnnc3)ccc21 (centres unmarked)', 7.80),
  ('O=C1c2cc(Nc3ccnnc3)ccc2CCN1CC(O)CN1CCc2ccccc2C1 (centres unmarked)', 7.94),
  ('Cn1cc(Nc2ccc3c(c2)C(=O)N(CC(O)CN2CCc4ccccc4C2)CC3)cn1 (centres unmarked)', 7.54),
  ('O=C1c2cc(Nc3ccnnc3)ccc2OCCN1C[C@H](O)CN1CCc2ccccc2C1 [Compound 30a]', 8.34),
  ('CC(=O)N1CCC(Nc2cnc3c(c2)C(=O)N(CC(O)CN2CCc4ccccc4C2)CC3)CC1 (centres unmarked)', 6.21),
  ('O=C1c2cc(NC3COC3)ccc2OCCN1CC(O)CN1CCc2ccccc2C1 (centres unmarked)', 6.88);
